Data provenance: patent US20240084003A1

Experimental target: T1, monkey CD22 protein (ACROBiosystems, catalog number SI2-R52Ha) (monkey, UniProt F6W485 20-688)
T1 construct: commercial protein; also called monkey CD22-ECD; monkey CD22-ECD-His
T1 sequence: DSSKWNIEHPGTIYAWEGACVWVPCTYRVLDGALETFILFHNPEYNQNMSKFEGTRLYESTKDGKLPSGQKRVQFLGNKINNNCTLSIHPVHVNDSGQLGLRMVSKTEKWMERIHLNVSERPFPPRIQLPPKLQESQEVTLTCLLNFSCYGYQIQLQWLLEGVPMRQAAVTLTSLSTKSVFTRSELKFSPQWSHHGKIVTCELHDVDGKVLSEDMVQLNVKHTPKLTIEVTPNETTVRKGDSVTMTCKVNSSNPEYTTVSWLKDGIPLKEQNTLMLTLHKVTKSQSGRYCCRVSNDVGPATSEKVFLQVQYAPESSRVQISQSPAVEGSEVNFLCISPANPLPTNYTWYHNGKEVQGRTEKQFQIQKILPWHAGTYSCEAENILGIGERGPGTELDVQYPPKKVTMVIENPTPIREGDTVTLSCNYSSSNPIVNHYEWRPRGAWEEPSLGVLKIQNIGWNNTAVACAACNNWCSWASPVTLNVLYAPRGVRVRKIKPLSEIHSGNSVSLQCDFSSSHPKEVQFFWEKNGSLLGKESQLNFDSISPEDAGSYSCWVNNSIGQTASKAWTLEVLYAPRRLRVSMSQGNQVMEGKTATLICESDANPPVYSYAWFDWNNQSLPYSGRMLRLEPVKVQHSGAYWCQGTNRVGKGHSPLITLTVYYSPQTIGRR
Assay: ELISA, coated monkey CD22 protein, antibody 10 nM
# label = y if OD450 >= 0.3 OD450 else n

Solved entries:
{"columns": ["Binder", "Class"],
 "data": [
  ["m971-hIgG1 (antibody, V domains shown, control anti-CD22 antibody; variable regions from US 8,591,889 on human IgG1 constant regions) VH: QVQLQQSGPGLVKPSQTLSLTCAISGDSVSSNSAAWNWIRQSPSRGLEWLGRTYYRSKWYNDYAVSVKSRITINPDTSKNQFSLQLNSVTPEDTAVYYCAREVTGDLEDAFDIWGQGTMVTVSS VL: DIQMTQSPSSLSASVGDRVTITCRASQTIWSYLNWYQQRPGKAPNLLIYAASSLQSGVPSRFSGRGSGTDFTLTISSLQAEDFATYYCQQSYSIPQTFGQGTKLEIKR", "n"],
  ["HA22-hIgG1 (antibody, V domains shown) VH: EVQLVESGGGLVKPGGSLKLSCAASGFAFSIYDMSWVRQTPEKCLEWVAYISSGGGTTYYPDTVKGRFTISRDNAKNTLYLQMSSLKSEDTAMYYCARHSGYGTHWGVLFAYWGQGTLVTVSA VL: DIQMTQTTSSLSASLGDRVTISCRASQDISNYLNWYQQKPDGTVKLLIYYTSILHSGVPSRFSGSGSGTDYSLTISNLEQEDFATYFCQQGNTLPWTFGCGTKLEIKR", "y"],
  ["F1.231.15 (antibody, IgG1, V domains shown, human-murine chimeric IgG1 kappa) VH: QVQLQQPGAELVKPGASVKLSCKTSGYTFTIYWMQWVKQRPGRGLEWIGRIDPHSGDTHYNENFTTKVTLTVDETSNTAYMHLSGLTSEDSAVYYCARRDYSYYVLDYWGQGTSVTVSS VL: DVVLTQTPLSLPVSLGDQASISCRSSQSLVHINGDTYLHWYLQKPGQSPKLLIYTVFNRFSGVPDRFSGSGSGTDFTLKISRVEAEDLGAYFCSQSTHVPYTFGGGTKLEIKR", "y"],
  ["F1.245.2 (antibody, human IgG1, kappa, V domains shown, human-murine chimeric IgG1 kappa) VH: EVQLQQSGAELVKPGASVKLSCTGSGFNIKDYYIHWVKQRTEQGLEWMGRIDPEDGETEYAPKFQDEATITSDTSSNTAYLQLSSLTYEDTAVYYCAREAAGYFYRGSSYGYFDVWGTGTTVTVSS VL: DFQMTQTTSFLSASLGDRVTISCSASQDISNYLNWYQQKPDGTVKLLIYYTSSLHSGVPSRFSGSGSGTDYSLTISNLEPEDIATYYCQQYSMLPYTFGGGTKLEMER", "n"]
]}

Pending binder:
Task: hey, is OD450 for this one >= 0.3 OD450? F1.105.11 (antibody, human IgG1, kappa, V domains shown, human-murine chimeric IgG1 kappa; VL name legible) VH: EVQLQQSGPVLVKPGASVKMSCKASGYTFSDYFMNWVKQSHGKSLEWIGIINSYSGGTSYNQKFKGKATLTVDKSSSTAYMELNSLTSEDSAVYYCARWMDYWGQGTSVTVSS VL: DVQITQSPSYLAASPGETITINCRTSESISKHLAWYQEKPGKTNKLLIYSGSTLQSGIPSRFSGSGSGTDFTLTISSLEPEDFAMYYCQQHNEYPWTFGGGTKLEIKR
Output: y
